Assay: Octanol-phosphate buffer partition coefficient, log D of the compound at pH 7.4 by Shake flask method
Assay type: physicochemical
# maps each entry to its logD
Note: the reply should be a number with no unit written.

Worked cases, logD given:
> print(dat)
                            molecule.smiles  quantity.kind  readout.number
1  COc1cc(NC(=O)[C@@H]2C[C@@]2(COc2cnc(C)nc2C)c2cccc(F)c2)ncc1F           logD            2.93
2  Cc1ncc(OC[C@@]2(c3cccc(F)c3)C[C@H]2C(=O)Nc2ccc(F)c(O[11CH3])n2)c(C)n1           logD             3.6
3  COc1nc(NC(=O)[C@@H]2C[C@@]2(COc2cnc(C)nc2C)c2cccc(F)c2)ccc1F           logD             3.6
4  COc1ccc([C@]2(COc3cnc(C)nc3C)C[C@H]2C(=O)Nc2ccc(F)cn2)cc1F           logD            3.32
5  Cc1ncc(OC[C@@]2(c3cccc(F)c3)C[C@H]2C(=O)Nc2ccc(F)cn2)c(CO[11CH3])n1           logD            2.97
6  Cc1ncc(OC[C@@]2(c3cccc(F)c3)C[C@H]2C(=O)Nc2cc(O[11CH3])c(F)cn2)c(C)n1           logD            2.93

Switching to the query record.
// logD lookup, molecule = COCc1nc(C)ncc1OC[C@@]1(c2cccc(F)c2)C[C@H]1C(=O)Nc1ccc(F)cn1 , result: 2.97
